- test description: in vitro
- test conditions: human, hela cells, % viability
Each item that follows carries a reported viability at 28.5 h, 10 µM.
Numeric answer plus unit only.

Please review the following examples before continuing.
Cc1nc(C)c(CC(=O)NC(c2ccncc2)c2cccs2)s1 (centres unmarked) = 96.6%
COc1ccccc1C(=O)N1CCN(c2nc3c(s2)c(C)nn3C)CC1 = 86.6%
CCc1cc2c(=O)c(-c3nc4ccccc4s3)coc2c(CN2CCCCC2)c1O = 86.1%
Fc1ccc(COc2cc(N3CCCC3)ncn2)cc1 = 109%
O=C(CCN1CCN2CCCCC2C1)N1c2ccccc2Sc2ccc(Cl)cc21 (centres unmarked) [CBK278257F] = 86.3%
Cc1onc(-c2ccccc2)c1CNC(=O)Cn1cc(C)c(=O)[nH]c1=O = 87.6%
OC1(c2ccccc2)CCNCC1 = 101%
CCn1c(=O)n(CC(=O)N2CCCCCC2)c2cccnc21 = 97.1%

Moving on to the next compound.
I have this compound here, O=C(NCc1ccc(Cl)cc1)C1CCCN1c1nc(O)cc(C(F)(F)F)n1 (centres unmarked) , and I need its recorded viability at 28.5 h, 10 µM. 115%

###

- test description: in vitro
- test conditions: human, hela cells, % viability
Each item that follows carries a reported viability at 28.5 h, 10 µM.
Express it in %; write the number only.

Please review the following examples before continuing.
COC(C(=O)N(C)C)C(OC)C(=O)N(C)C (stereo not shown) = 111
CC(=O)N1C[C@H](c2cccc(C)c2)[C@H]2CN(C3CCCC3)CC[C@H]21 = 88.7
CCN(CC)C(=O)C1CCCN(C(=O)NCCCN2CCN(C)CC2)C1 (stereo not shown) = 89.7
CN(CC(=O)Nc1ccc(Cl)c(C(F)(F)F)c1)C(=O)c1cc(O)nc2ccccc12 = 87.8
Nc1ncnc2[nH]c(SCc3nc4ccccc4n3Cc3ccccc3)nc12 = 103
CS(=O)(=O)Nc1ccc2cc(-c3ccc(Oc4ccccc4)cc3)cnc2n1 = 98
COc1cccc2c1cc(C(=O)NC1CCCN(C)C1)n2C (stereo not shown) = 90.2
COc1ccnc(N2CCCN(CCc3ccc(OC)c(OC)c3)CC2)n1 = 85
O=C(c1cccs1)N1C[C@H](c2ccc(F)cc2)[C@H]2CN(Cc3ccccc3)CC[C@H]21 = 91.8
COc1ccc([C@@H]2CCN(C(=O)c3cc(F)cc(F)c3)C[C@H]2O)cc1 = 97

I have this compound here, "O=C(c1ccccc1)N1CCN(C(=O)c2ccco2)CC1" , and I need its recorded viability at 28.5 h, 10 µM. 96.6

I have this compound here, "Cc1ccc(S(N)(=O)=O)cc1NC(=O)c1ccc(Br)o1" , and I need its recorded viability at 28.5 h, 10 µM. 91.6

I have this compound here, "CSCCN1CCC2(CC1)CN(CC(N)=O)c1ccccc12" , and I need its recorded viability at 28.5 h, 10 µM. 92.9

I have this compound here, "COCCNc1nc(-c2ccc(N3CCOCC3)cc2)ccc1C(=O)N1CCN(C)CC1" , and I need its recorded viability at 28.5 h, 10 µM. 111

I have this compound here, CCC(Sc1nc(O)cc(-c2ccccc2)n1)C(=O)O (stereo not shown) , and I need its recorded viability at 28.5 h, 10 µM. 87.8

I have this compound here, CN1C(=O)C2(N=C(N)NC(Nc3ccc(F)cc3)=N2)c2ccccc21 (stereo not shown) , and I need its recorded viability at 28.5 h, 10 µM. 94.8

I have this compound here, "O=C(NNC1=C(C(=O)C(F)(F)F)CCC1)c1cccnc1" , and I need its recorded viability at 28.5 h, 10 µM. 89.1

I have this compound here, "Cc1cc(CN2CCN(S(=O)(=O)c3ccc(C(F)(F)F)cc3Cl)CC2)cc(C)c1O" , and I need its recorded viability at 28.5 h, 10 µM. 103

I have this compound here, NCC1CCN(c2cc(C(F)(F)F)c3scc(C(=O)NCc4cccc(F)c4F)c3n2)CC1 [CBK036391T] , and I need its recorded viability at 28.5 h, 10 µM. 71.6
